system: 628569-122-R-J1-PDC complex spheroid viability; assay: Anticancer human tumor 628569-122-R-J1-PDC patient-derived head and neck squamous carcinoma cell line growth inhibition [CLK]; settings: second compound 0.0316 µM; first compound 10 µM; stronger effect = lower value
hey, just use TRUE if measured viability, T/C is less than 30%, otherwise FALSE

* COc1ccc([C@@H](O)c2cc(-c3ncnc4cc(N5CCOCC5)ccc34)c(F)cc2Cl)nn1 + CN1CCN(c2cc(C(=O)Nc3cc4cc(-c5cnn(C)c5)ccc4cn3)ccn2)CC1 | TRUE
* Nc1ccn(C2OC(CO)C(O)C2(F)F)c(=O)n1 (stereo not given) + CNC(=O)c1ccc(Nc2nc(OC3CCCC3)c3c(-c4ccc5nc(C)oc5c4)c[nH]c3n2)c(OC)c1 | FALSE
* CC1(C)CCC(CN2CCN(c3ccc(C(=O)NS(=O)(=O)c4ccc(NCC5CCOCC5)c([N+](=O)[O-])c4)c(Oc4cnc5[nH]ccc5c4)c3)CC2)=C(c2ccc(Cl)cc2)C1 + CNC(=O)c1ccc(Nc2nc(OC3CCCC3)c3c(-c4ccc5nc(C)oc5c4)c[nH]c3n2)c(OC)c1 | FALSE
* C=C(F)C(=O)N1CCN(c2nc(OCC3CCCN3C)nc3c2CCN(c2cccc4cccc(Cl)c24)C3)CC1CC#N (stereo not given) + CNC(=O)c1ccc(Nc2nc(OC3CCCC3)c3c(-c4ccc5nc(C)oc5c4)c[nH]c3n2)c(OC)c1 | TRUE

Below: the item to evaluate.
[Q] Hello, is viability, T/C of the following compound strictly smaller than 30%? CCCS(=O)(=O)Nc1ccc(F)c(C(=O)c2c[nH]c3ncc(-c4ccc(Cl)cc4)cc23)c1F + CN1CCN(c2cc(C(=O)Nc3cc4cc(-c5cnn(C)c5)ccc4cn3)ccn2)CC1
[A] FALSE

---

test system: 628569-122-R-J1-PDC complex spheroid viability; test: Anticancer human tumor 628569-122-R-J1-PDC cell line growth inhibition [CLK]; conditions: curve of first compound; second compound 1 µM;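 also: spheroids exposed to agents for seven days before readout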
pIC50: −log10 of the molar value.
Let's look at some molecules and their measured pIC50.

Take a look at these entries with their results.
• CCCS(=O)(=O)Nc1ccc(F)c(C(=O)c2c[nH]c3ncc(-c4ccc(Cl)cc4)cc23)c1F + CN1CCN(c2cc(C(=O)Nc3cc4cc(-c5cnn(C)c5)ccc4cn3)ccn2)CC1 = > 7.50
• C=CC(=O)Nc1cc(Nc2nccc(-c3cn(C)c4ccccc34)n2)c(OC)cc1N(C)CCN(C)C + CNC(=O)c1ccc(Nc2nc(OC3CCCC3)c3c(-c4ccc5nc(C)oc5c4)c[nH]c3n2)c(OC)c1 = > 9.02
• COc1cccc2c1C(=O)c1c(O)c3c(c(O)c1C2=O)CC(O)(C(=O)CO)CC3OC1CC(N)C(O)C(C)O1 (stereo not given) + CNC(=O)c1ccc(Nc2nc(OC3CCCC3)c3c(-c4ccc5nc(C)oc5c4)c[nH]c3n2)c(OC)c1 = 7.50

[Q] pIC50 lookup needed for COC1C=CCC(C)C(C)S(=O)(=O)NC(=O)c2ccc3c(c2)N(CC2CCC21)CC1(CCCc2cc(Cl)ccc21)CO3 (stereo not given) + CN1CCN(c2cc(C(=O)Nc3cc4cc(-c5cnn(C)c5)ccc4cn3)ccn2)CC1 , thanks.
[A] > 7.50

---

test system: 628569-122-R-J1-PDC complex spheroid viability; assay: Anticancer human tumor 628569-122-R-J1-PDC cell line growth inhibition [CLK]; conditions: second compound 10 µM; first compound 10 µM; active = viability on the fitted dose curve at most 10% of control; inactive = the rest;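 also: spheroids exposed to agents for seven days before readout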
Choose one outcome from this list and give only that: active, inactive

Record excerpt, results attached:
• C=C(F)C(=O)N1CCN(c2nc(OCC3CCCN3C)nc3c2CCN(c2cccc4cccc(Cl)c24)C3)CC1CC#N (centres undefined) + CNC(=O)c1ccc(Nc2nc(OC3CCCC3)c3c(-c4ccc5nc(C)oc5c4)c[nH]c3n2)c(OC)c1 = active
• CC(=O)O[C@H]1C(=O)[C@@]2(C)[C@H]([C@H](OC(=O)c3ccccc3)[C@]3(O)C[C@H](OC(=O)[C@H](O)[C@@H](NC(=O)c4ccccc4)c4ccccc4)C(C)=C1C3(C)C)[C@]1(OC(C)=O)CO[C@@H]1C[C@@H]2O + CN1CCN(c2cc(C(=O)Nc3cc4cc(-c5cnn(C)c5)ccc4cn3)ccn2)CC1 = active
• C#Cc1c(F)ccc2cc(O)cc(-c3ncc4c(N5CC6CCC(C5)N6)nc(OCC56CCCN5CC(F)C6)nc4c3F)c12 (centres undefined) + CN1CCN(c2cc(C(=O)Nc3cc4cc(-c5cnn(C)c5)ccc4cn3)ccn2)CC1 = active
• C=CC(=O)N1CCN(c2nc(=O)n(-c3c(C)ccnc3C(C)C)c3nc(-c4c(O)cccc4F)c(F)cc23)C(C)C1 (centres undefined) + CN1CCN(c2cc(C(=O)Nc3cc4cc(-c5cnn(C)c5)ccc4cn3)ccn2)CC1 = active
• O=C(c1cc(Cc2n[nH]c(=O)c3ccccc23)ccc1F)N1CCN(C(=O)C2CC2)CC1 + CN1CCN(c2cc(C(=O)Nc3cc4cc(-c5cnn(C)c5)ccc4cn3)ccn2)CC1 = active

[Q] Which result was noted for this compound in the test: O=c1[nH]cc(F)c(=O)[nH]1 + CNC(=O)c1ccc(Nc2nc(OC3CCCC3)c3c(-c4ccc5nc(C)oc5c4)c[nH]c3n2)c(OC)c1
[A] inactive

[Q] Please share the test call associated with CCCS(=O)(=O)Nc1ccc(F)c(C(=O)c2c[nH]c3ncc(-c4ccc(Cl)cc4)cc23)c1F + CN1CCN(c2cc(C(=O)Nc3cc4cc(-c5cnn(C)c5)ccc4cn3)ccn2)CC1 .
[A] active

[Q] # outcome recorded in this test, key = O=C(c1cc(Cc2n[nH]c(=O)c3ccccc23)ccc1F)N1CCN(C(=O)C2CC2)CC1 + CNC(=O)c1ccc(Nc2nc(OC3CCCC3)c3c(-c4ccc5nc(C)oc5c4)c[nH]c3n2)c(OC)c1
[A] inactive

[Q] Record request — test call for CC(Nc1ccc2c(c1)OCCn1cc(N3C(=O)OCC3C(F)F)nc1-2)C(N)=O (centres undefined) + CNC(=O)c1ccc(Nc2nc(OC3CCCC3)c3c(-c4ccc5nc(C)oc5c4)c[nH]c3n2)c(OC)c1
[A] inactive
